Below, each entry is listed alongside its reported GI50.
System: CAKI-1 renal
Assay: NCI tumour cell line growth inhibition, 48 h

// below: answered molecules
[
  {
    "molecule": "CN(C)CCCNc1nccc(-c2c(-c3ccc(F)cc3)nn3cc(C(F)(F)F)ccc23)n1",
    "data value": "12.3 µM"
  },
  {
    "molecule": "N#Cc1c(-c2ccccc2)cc(-c2ccccc2)n(CCCCC(=O)NO)c1=O",
    "data value": "1.61 µM"
  }
]

[in] # input molecule: `c1ccc(-c2nn(-c3ccccc3)[n+](-c3cccc4ccccc34)n2)cc1` ; wanted: its GI50
[out] 37.1 µM

[in] Name the reported GI50 value associated with the molecule C=C1CCC2C3(C)COC(c4ccc(SC)cc4)OC3CCC2(C)C1C/C=C1/C(=O)OCC1O (stereo not given)
[out] 11.2 µM

[in] For `Oc1cc(O)c2c(=S)cc(-c3ccc(Cl)cc3)oc2c1` , what is its reported GI50?
[out] 2.95 µM

The reported numbers originate from PubChem BioAssay (NCI).
